- System: MDA-MB-231 (breast) cancer cells
- Procedure summary: In vitro cytotoxic activity (MTT) assay, MDA-MB-231
- Format: cell-based
- Experimental parameters: Homo sapiens; MDA-MB-231 cells, exposed for 96 hours; read-out: IC50, inhibition of cell proliferation, MDA-MB-231 (breast)
Assay endpoint: pIC50
Units for pIC50: none; it is -log10 of a concentration expressed in mol/L.

[ask] Look up and report pIC50, with MDA-MB-231 (breast) cancer cells as system, for O=C(O)c1ccc2c3cnccc3n(C(=O)c3cccc(Cl)c3)c2c1 [Compound (7)]
[reply] 5.44

###

- System under test: recombinant human CK2 (RRββ-holoenzyme) (Homo sapiens)
- Sequence (P68400 whole entry): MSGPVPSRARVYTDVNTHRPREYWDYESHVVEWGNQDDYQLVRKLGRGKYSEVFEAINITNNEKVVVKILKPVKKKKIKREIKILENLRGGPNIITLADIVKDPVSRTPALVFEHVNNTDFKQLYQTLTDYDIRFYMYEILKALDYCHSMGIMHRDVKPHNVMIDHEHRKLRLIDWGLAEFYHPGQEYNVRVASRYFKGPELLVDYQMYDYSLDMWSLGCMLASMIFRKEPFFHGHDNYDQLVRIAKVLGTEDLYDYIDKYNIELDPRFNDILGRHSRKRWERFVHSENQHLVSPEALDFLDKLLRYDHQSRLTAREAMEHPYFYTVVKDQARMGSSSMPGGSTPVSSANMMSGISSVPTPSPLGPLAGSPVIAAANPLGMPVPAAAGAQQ
- Sequence (P67870 whole entry partner): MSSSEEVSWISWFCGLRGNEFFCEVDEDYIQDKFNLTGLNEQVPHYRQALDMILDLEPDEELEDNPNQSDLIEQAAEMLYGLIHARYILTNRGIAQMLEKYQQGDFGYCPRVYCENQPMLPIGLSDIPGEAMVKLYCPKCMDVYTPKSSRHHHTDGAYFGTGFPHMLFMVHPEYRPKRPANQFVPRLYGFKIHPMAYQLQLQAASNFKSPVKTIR
- Procedure summary: CK2 kinase assay (radiometric, [γ-33P]ATP)
- Experimental parameters: final ATP 15 μM, 10 min at 30° C., eight concentrations; read-out: IC50, protein kinase CK2 activity
Assay endpoint: IC50 (nM)
The answer is to be given in nM; state only the numeric part.

[ask] Look up and report IC50, with recombinant human CK2 (RRββ-holoenzyme) (Homo sapiens) as system, for "O=C(O)c1ccc2c3cnccc3n(C(=O)c3cccc(Cl)c3)c2c1"
[reply] 36
